Ref: patent US11666558B2

Test details: Ocular tissue concentrations (aqueous humor, vitreous humor, iris, retina, choroid, cornea) after topical ocular, subcutaneous and intravitreal administration
Format: in vivo, New Zealand White rabbits
Measurement setup: New Zealand White, rabbit, retina, subcutaneous, 5 mg/kg/dose, Retina, 0.5 hr; free acid, subcutaneous 5 mg/kg/dose, Group 3; read-out: Retina Average
Protocol: To measure the concentration of Compound 1 in plasma and ocular tissues following topical ocular, subcutaneous, and intravitreal administration, New Zealand White rabbits were administered Compound 1, and plasma and ocular samples were collected at pre-determined time points. […] Ocular tissue samples from both eyes of each animal were collected and weights were recorded. Plasma and ocular tissue sample concentrations of Compound 1 were determined by LC-MS/MS. […]
Experimental readout: concentration at 0.5 h (ng/g)
Your answer is read as ng/g, so omit the unit and give the number.

Field concentration at 0.5 h (entry `COC(=O)N[C@@H](Cc1ccccc1)C(=O)N[C@@H](Cc1ccc(NS(=O)(=O)O)cc1)c1csc(-c2cccs2)n1` ) reads 38.7
